experimental details: NCI Yeast Anticancer Drug Screen. Data for the mec2-1 strain (AID 157)
run conditions: S. cerevisiae mec2-1 strain, at 50.0 µM, active compounds read high
The panel holds about 79,000 compounds, 15% with a hit somewhere; the sample as a whole holds those more often.
Kindly supply the reported growth inhibition values for the records listed here.
Give bare numbers, in %.

Sample records with growth inhibition:
Ask: Form field: reported growth inhibition of `CCCCCCCCCCCCSC(=O)NCCC`
Reply: -2.05

Ask: Query (compound): `CS(=O)(=O)ON1C(=O)c2ccccc2C1=O` ; field requested: growth inhibition
Reply: -52

Ask: Please look up its growth inhibition: `O=C(C(=O)c1cccc(C(=O)C(=O)c2ccccc2)c1)c1ccccc1`
Reply: -10.6

Ask: Report growth inhibition for Oc1ccc2ccccc2c1C(c1cccc2ccccc12)N1CCCCC1 (configuration not stated) please.
Reply: 1.4

Ask: Name the recorded growth inhibition for `Oc1cccc(NCNC2Nc3ccccc3N2)c1` .
Reply: 14.7

Items follow; give growth inhibition for each.
1. Cc1cc(C)c(CCC(=O)O)c(C)c1
2. COC(=O)C(O)C(O)C(O)C(O)C(=O)OC (configuration not stated)
3. COc1cc(-c2oc3ccccc3c(=O)c2O)cc(OC)c1OC
4. Clc1c(Cl)c(CBr)c(Cl)c(-c2c(Cl)c(Cl)c(Cl)c(CBr)c2Cl)c1Cl
5. Cc1cccc(NC(=O)c2ccc(Cl)c(Cl)c2)c1

Reply:
1: 4.8; 2: 17.4; 3: -51.8; 4: -4.1; 5: 13.7

###

Answer each item with its documented growth inhibition.
experimental details: NCI Yeast Anticancer Drug Screen. Data for the rad50 strain (AID 155);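 note: 0% = growth of vehicle-only cultures of the same strain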
run conditions: S. cerevisiae rad50 strain growth inhibition; at 50.0 µM; active compounds read high
The panel holds about 79,000 compounds, 15% with a hit somewhere; the sample as a whole holds those more often.
Give bare numbers, in %.

Ask: Could you tell me which growth inhibition is on file for `NC(=S)N=Nc1c(O)[nH]c2c(Cl)cc(Cl)cc12` ?
Reply: 6.7

Quick request: growth inhibition for each listed item, please.
1. Cn1c(=O)c2c(nc(C3CC3)n2C)n(C)c1=O
2. C/C(CC(=O)Nc1ccc(C)c(C)c1)=N\N(c1ccccc1)c1ccccc1

Reply:
[-1.15, -16.6]

// each listed compound needs a value for growth inhibition
1. O=C1c2ccccc2-c2ccc(N3C(=O)c4c(Br)c(Br)c(Br)c(Br)c4C3=O)cc21
2. CS(=O)(=O)CC(O)c1ccccc1 (centres undefined)
3. COC(=O)/C(C#N)=C/c1cccnc1

Reply:
10.6
4.8
-10.1

###

experimental details: NCI Yeast Anticancer Drug Screen. Data for the bub3 strain (AID 167)
run conditions: S. cerevisiae bub3 mutant strain, at 50.0 µM, active compounds read high
Compounds without any hit were thinned out: in the full panel of roughly 79,000, 15% have a hit. Where a SMILES comes first, the peptide text is derived from it. [ ]: non-standard residue; d: D form. The star is where a group is joined. ξ: configuration not given here. Boc = CC(C)(C)OC(=O)*; ξV = CC(C)C(N)C(=O)O; OBn = c1ccc(CO*)cc1
metric: growth inhibition (%)
Numbers only, in %.

Past entries and their recorded results:
Ask: Look up growth inhibition: `CC(C)=NOCCC#N`
Reply: 8.35

Ask: Name the recorded growth inhibition for `O=[N+]([O-])c1cnc(/C=[N+](\[O-])C2CCCCC2)n1CCO` .
Reply: 16.6

Ask: Requested field: growth inhibition. Item: `C=CCc1cc(C(=O)O)ccc1OC`
Reply: -30.4

Ask: Which growth inhibition value is on record for `N#C/C(=C\NC(N)=S)C(=O)c1ccc2ccccc2c1` ?
Reply: 0.8

Ask: Using the record for `O=[N+]([O-])c1cc(N(c2ccccc2)c2ccccc2)cc([N+](=O)[O-])c1` , report its growth inhibition.
Reply: -2.8

For each of the compounds below, note its growth inhibition.
1. CC1(C)OCC2(CO1)CSCCCSCC1(COC(C)(C)OC1)CSCCCSC2
2. CC(C)C(NC(=O)OC(C)(C)C)C(=O)NCC(=O)OCc1ccccc1 (configuration not stated) (Boc-[ξV]-Gly-OBn)
3. OC1c2ccccc2CC1Br (configuration not stated)
4. CCOC(=O)C(Cc1cc(C)c(O)c(I)c1)NC(C)=O (configuration not stated)
5. CCCCOP(=O)(OCCCC)/C(C#N)=C/c1ccco1

Reply:
[-25.5, -8.6, 7.65, 5.85, -29.8]

###

experimental details: NCI Yeast Anticancer Drug Screen. Data for the mlh1 rad18 strain (AID 175)
run conditions: S. cerevisiae mlh1 rad18 strain growth inhibition; at 50.0 µM
Compounds without any hit were thinned out: in the full panel of roughly 79,000, 15% have a hit. Calls of active or inactive are those of the source. Rule as the data show it: active = growth inhibition above about 70%; inactive = the rest.
I would appreciate it if you answered using one of these outcomes: 1 (yes) (active), 0 (no) (inactive)

Record excerpt, results attached:
Ask: Would you mind telling me which call this test gave COC(=O)CNC(=O)C(Cc1ccc(OCc2ccccc2)cc1)NC(=O)OC(C)(C)C (centres undefined) ?
Reply: 0 (no)

Ask: Recorded test outcome, item CCOC(=O)C1C(C)NC(C)C(C(=O)OCC)C1c1ccccc1Cl (centres undefined)
Reply: 0 (no)

Ask: In this assay, the call recorded for `CC(=O)/C(=C\c1ccccc1)C(=O)CCN(C)C` was what?
Reply: 0 (no)

Next:
Ask: Dear colleague, could you share the recorded outcome for `Cc1occc1C(=S)Nc1ccc(Cl)c(OCC(=O)OC(C)(C)C)c1` when you have a moment?
Reply: 0 (no)

Ask: # lookup: test call for COc1ccc(C(C#N)C(=O)C(=O)Nc2ccc(Cl)cc2C)cc1OC (centres undefined)
Reply: 0 (no)

Ask: Which outcome was entered for the compound `CCOC(OCC)N(C)C` in this test?
Reply: 0 (no)

Ask: Answer briefly: the call reported for `OCC#C[C@@H]1CC[C@H]1C#CCO` in this assay.
Reply: 0 (no)

Ask: Please share the test call associated with `C[C@@]12CCC3C1C=C1C(=O)c4cc(O)ccc4C(=O)[C@]1(O2)[C@@]3(C)C=O` .
Reply: 1 (yes)

Ask: Recorded test call requested for `Cc1cc2ccccc2[nH]1`
Reply: 0 (no)

Ask: Record lookup: outcome of this test for CCOC(=O)C1=C(C)N(NC(N)=O)C2(O)CCCC(=O)C12C (centres undefined) ?
Reply: 0 (no)

Ask: GET /call?item= `Clc1ccc(N=C(Oc2ccc(Cl)cc2)c2ccccc2)cc1` returns the recorded outcome of this test.
Reply: 0 (no)

Ask: Query: recorded result category for `CC(=O)C1=CN(C)c2ccccc2S1` in this test
Reply: 0 (no)

Ask: Please let me know the test result on file for `Nc1ncnc(N)c1NC(=O)c1cccc(-c2ccccc2)c1` .
Reply: 0 (no)

Ask: What classification did `FC(F)(F)C(c1ccc(Cl)cc1)c1ccc(Cl)cc1` end up with in this test?
Reply: 0 (no)

Ask: Tell me the assay call for N#CC1CC=CCN1CCc1ccccc1 (centres undefined) please.
Reply: 0 (no)

Ask: Each compound tested received a call. Report the one for `CC(=O)NCc1cc(C)c(CBr)cc1CBr` .
Reply: 0 (no)

Ask: Dear colleague, could you share the recorded outcome for COC(=O)c1cc(C(C)O)nc2ccccc12 (centres undefined) when you have a moment?
Reply: 0 (no)

Ask: So what was the verdict on `CCCCCCCCCCCCCCCCSc1cccc(C)c1` in this test?
Reply: 0 (no)

Ask: State the result this test recorded for `CCN(Cc1ccccc1)c1ccccc1C` .
Reply: 0 (no)

Ask: Identify the outcome logged in this assay for the compound shown: CC(C1=CC=C2[C@@H]3CCC4CC(N(C)C)CC[C@]4(C)C3CC[C@]12C)N(C)C=O (some centres undefined)
Reply: 0 (no)

Ask: Record lookup: outcome of this test for `Clc1nc(N2CCCCC2)c2[nH]cnc2n1` ?
Reply: 0 (no)

Ask: Check the results log: what was the call for `CCN(CC)C(=O)Cc1c(C(=O)N(CC)CC)c(=O)nc2sccn12` ?
Reply: 0 (no)

Ask: Lab log entry: `NS(=O)(=O)c1ccc(C(=O)O)s1` — outcome as called in the assay?
Reply: 0 (no)

Ask: Please let me know the test result on file for `O=C(NCc1ccc2ccc3cccnc3c2n1)c1ccc[n+](Cc2ccccc2)c1` .
Reply: 0 (no)

###

experimental details: NCI Yeast Anticancer Drug Screen. Data for the sgs1 mgt1 strain (AID 161);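 note: 0% = growth of cultures given vehicle only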
run conditions: S. cerevisiae sgs1 mgt1 strain, at 50.0 µM, active compounds read high
About 79,000 compounds went through this panel and 15% of them were active in at least one assay; those are over-represented in the sample as a whole.
metric: growth inhibition (%)
Numbers only, in %.

Answered examples (2):
Ask: Fill blank: measured growth inhibition of the compound CC1=C(O[Si](C(C)C)(C(C)C)C(C)C)C2CC1(OS(=O)(=O)C(F)(F)F)[C@H]1C(=O)N(c3ccccc3)C(=O)[C@@H]21 (stereo partly drawn) is ____.
Reply: 0.3

Ask: Find the recorded growth inhibition belonging to CC1OC(OCC2OC(Oc3c(-c4ccc(O)cc4)oc4cc(O)cc(O)c4c3=O)C(OC3OC(C)C(O)C(O)C3O)C(O)C2O)C(O)C(O)C1O (stereo not drawn) and report it.
Reply: -2.2

Continuing:
Ask: Need growth inhibition of COc1cc2c(cc1O)C(C)C(c1ccccc1)O2 (stereo not drawn) , thanks.
Reply: 9.45
